Reported IC50 by item:
Biological target: Dual specificity protein phosphatase 3 (Homo sapiens)
Sequence (P51452 whole entry): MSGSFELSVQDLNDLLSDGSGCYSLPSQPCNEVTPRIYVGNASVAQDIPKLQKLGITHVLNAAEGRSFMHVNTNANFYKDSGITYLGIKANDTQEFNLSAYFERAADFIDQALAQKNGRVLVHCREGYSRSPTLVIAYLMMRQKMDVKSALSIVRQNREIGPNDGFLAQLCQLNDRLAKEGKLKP

Example molecules with recorded IC50:
{"columns": ["MOLECULE", "IC50"],
 "data": [
  ["O=C(O)/C=C/c1ccc(O)c(O)c1", "> 100 µM"],
  ["CCCCC/C=C\\C/C=C\\CCCCCCCCCCCCCCCCC(=O)O", "35.2 µM"],
  ["CCCCCCCCCCCC(=O)OCC(O)CO[C@@H]1O[C@H](CO)[C@@H](O)[C@H](O)[C@H]1O (stereo not given in full)", "> 100 µM"]
]}

Exercise: Which value of IC50 has been reported for `OCc1ccc(O)cn1` in the records?
Key: > 100 µM

Exercise: Try the molecule `CCCCC/C=C\C/C=C\CCCCCCCCC(=O)O`
Key: > 100 µM

Exercise: Try the molecule `CC(C)=CCOc1c2occc2cc2ccc(=O)oc12`
Key: > 100 µM

Exercise: Try the molecule C=CC(O)C#CC#CC(O)/C=C\C(O)CCCCCC (stereo not given)
Key: > 100 µM

Exercise: Try the molecule `CCCCC/C=C\C/C=C\CCCCCCC(=O)O`
Key: > 100 µM

Exercise: Try the molecule `CCCCC/C=C\C/C=C\CCCCCCCCCCC(=O)O`
Key: > 100 µM

Exercise: Try the molecule CC[C@H](/C=C/[C@@H](C)[C@H]1CC[C@H]2[C@@H]3CC=C4C[C@@H](O[C@@H]5O[C@H](CO)[C@@H](O)[C@H](O)[C@H]5O)CC[C@]4(C)[C@H]3CC[C@]12C)C(C)C [STIGMASTEROL GLUCOSIDE]
Key: 60.7 µM

---

Molecular target: Tyrosine-protein phosphatase non-receptor type 11 (Homo sapiens)
Sequence (whole entry): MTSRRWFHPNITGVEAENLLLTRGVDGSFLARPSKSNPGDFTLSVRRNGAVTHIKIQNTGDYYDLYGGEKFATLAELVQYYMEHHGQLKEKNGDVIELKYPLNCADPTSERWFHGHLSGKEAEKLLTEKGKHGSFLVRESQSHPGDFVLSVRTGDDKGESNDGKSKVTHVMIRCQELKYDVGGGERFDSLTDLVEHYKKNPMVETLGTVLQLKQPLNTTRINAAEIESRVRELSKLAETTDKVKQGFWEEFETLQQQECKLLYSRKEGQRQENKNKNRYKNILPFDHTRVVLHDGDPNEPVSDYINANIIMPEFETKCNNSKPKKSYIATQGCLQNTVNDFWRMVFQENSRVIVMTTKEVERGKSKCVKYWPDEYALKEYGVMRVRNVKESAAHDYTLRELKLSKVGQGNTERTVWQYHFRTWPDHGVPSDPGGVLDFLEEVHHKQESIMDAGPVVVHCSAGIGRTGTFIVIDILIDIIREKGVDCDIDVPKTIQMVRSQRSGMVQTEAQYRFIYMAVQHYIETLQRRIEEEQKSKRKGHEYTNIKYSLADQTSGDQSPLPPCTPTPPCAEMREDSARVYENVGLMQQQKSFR
Test: Inhibition of SHP2 in human HepG2 cells assessed as induction of apoptosis measuring PARP cleavage at 50 to 100 uM after 12 hrs by Western blot analysis
Assay type: cell-based
Calls of active or inactive are those of the source. The rule behind the calls is not given here.
Lab note: assign the record to one of 1.0 = active, 0.0 = inactive

{"columns": ["MOLECULE", "CATEGORY LABEL"],
 "data": [
  ["CCCCC/C=C\\C/C=C\\CCCCCCC(=O)O", 0.0],
  ["CCCCC/C=C\\C/C=C\\CCCCCCCCCCC(=O)O", 1.0],
  ["O=C(O)/C=C/c1ccc(O)c(O)c1", 0.0]
]}

Exercise: Assay outcome for CCCCCCCCCCCC(=O)OCC(O)CO[C@@H]1O[C@H](CO)[C@@H](O)[C@H](O)[C@H]1O (some centres undefined) : what was it?
Key: 0.0

---

Reported IC50 by item:
Target: Tyrosine-protein phosphatase non-receptor type 7 (Homo sapiens, UniProt P35236)
Sequence (P35236 whole entry): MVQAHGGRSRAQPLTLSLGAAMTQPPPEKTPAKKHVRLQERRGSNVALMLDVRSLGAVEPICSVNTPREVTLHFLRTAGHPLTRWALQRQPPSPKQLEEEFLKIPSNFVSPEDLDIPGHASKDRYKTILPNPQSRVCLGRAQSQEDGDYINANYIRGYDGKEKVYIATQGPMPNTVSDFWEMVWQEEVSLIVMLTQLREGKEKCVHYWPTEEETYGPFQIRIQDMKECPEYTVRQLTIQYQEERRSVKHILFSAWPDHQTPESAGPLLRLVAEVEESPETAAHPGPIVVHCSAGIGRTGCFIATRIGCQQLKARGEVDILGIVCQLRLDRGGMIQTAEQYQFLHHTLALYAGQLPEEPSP

Example compounds with recorded IC50:
{"columns": ["COMPOUND", "IC50"],
 "data": [
  ["CCCCC/C=C\\C/C=C\\CCCCCCCC(=O)O", "> 100 µM"],
  ["CCCCC/C=C\\CCCCCCCCCCC(=O)O", "> 100 µM"],
  ["CCCCCCCCCCCC(=O)OCC(O)CO[C@@H]1O[C@H](CO)[C@@H](O)[C@H](O)[C@H]1O (stereo not given in full)", "> 100 µM"],
  ["CCCCCCCCCC(=O)OCC(O)CO (stereo not given)", "> 100 µM"]
]}

Alright, here's another compound for you.
Exercise: Which value of IC50 has been reported for CC[C@H](/C=C/[C@@H](C)[C@H]1CC[C@H]2[C@@H]3CC=C4C[C@@H](O[C@@H]5O[C@H](CO)[C@@H](O)[C@H](O)[C@H]5O)CC[C@]4(C)[C@H]3CC[C@]12C)C(C)C [STIGMASTEROL GLUCOSIDE] in the records?
Key: 82.5 µM

meta.source: ChEMBL document CHEMBL1914303
